# EXPERIMENTAL DETAILS: carrageenin-induced edema in the hind paw of the rat (modified Winter et al.)
# Format: in vivo
# DETAILS: Rattus norvegicus, po, 3 h, Table I; 50 mg/kg, oral, 1 h before carrageenin; 3 h; read-out: Reduction % (carrageenin edema)
Counter-ions that a name gives are not always drawn.
Listed here are compounds together with their documented inhibition in vivo at 50 mg/kg.
Please reply with the bare figure in % and do not write the unit itself.

>>> quantitative_result("C1=C(c2cccc3ccccc23)N2CCN=C2S1 [Compound 10]")
58
>>> quantitative_result("CSC1=C(C(C)(C)C)N2CCN=C2S1 [Compound 3, hydrobromide]")
26

For record CC1=C(c2ccccc2)SC2=NCCN21 [Compound 15] the listed inhibition in vivo at 50 mg/kg is 53

For record CCC1=C(c2ccccc2)N2CCCN=C2S1 [Compound 29, hydrobromide] the listed inhibition in vivo at 50 mg/kg is 76

For record CC1=CSC2=NC(C)CN12 (stereo not drawn) [Compound 13] the listed inhibition in vivo at 50 mg/kg is 24

For record CC(C)(C)C1=CSC2=NCCN12 [Compound 8] the listed inhibition in vivo at 50 mg/kg is 56

For record Brc1ccc(C2=CSC3=NCCN23)cc1 [Compound 7] the listed inhibition in vivo at 50 mg/kg is 70

For record CC1=CSC2=NCCN12 [Compound 9] the listed inhibition in vivo at 50 mg/kg is 46

For record CC1CN2C(c3ccc(Cl)cc3)=CSC2=N1 (stereo not drawn) [Compound 16] the listed inhibition in vivo at 50 mg/kg is 58

For record CC1CN2C(C(C)(C)C)=CSC2=N1 (stereo not drawn) [Compound 12] the listed inhibition in vivo at 50 mg/kg is 54

---

# EXPERIMENTAL DETAILS: carrageenin-induced edema in the hind paw of the rat (modified Winter et al.)
# Format: in vivo
# DETAILS: Rattus norvegicus, po, 3 h, Table I; 25 mg/kg, oral, 1 h before carrageenin; 3 h; read-out: Reduction % (carrageenin edema)
OUTCOME MEASURE: inhibition in vivo at 25 mg/kg (%)
Please reply with the bare figure in % and do not write the unit itself.

Record excerpt, results attached:
>>> quantitative_result("O=[N+]([O-])c1ccc(C2=CSC3=NCCCN23)cc1 [Compound 32]")
20
>>> quantitative_result("CC1=C(c2ccc(Cl)cc2)N2CCN=C2S1 [Compound 6]")
45
>>> quantitative_result("CCC1=C(c2ccc(Cl)cc2)N2CCN=C2S1 [Compound 5]")
33
>>> quantitative_result("CCC1=C(c2ccccc2)N2CCN=C2S1 [Compound 4]")
41

For record Clc1ccc(C2=CSC3=NCCCN23)cc1 [Compound 28] the listed inhibition in vivo at 25 mg/kg is 29

---

Listed here are compounds together with their documented inhibition in vivo at 50 mg/kg.
# EXPERIMENTAL DETAILS: carrageenin-induced edema in the hind paw of the rat (modified Winter et al.)
# Format: in vivo
# DETAILS: Rattus norvegicus, po, 3 h, Table I; 50 mg/kg, oral, 1 h before carrageenin; 3 h; read-out: Reduction % (carrageenin edema)
Please reply with the bare figure in % and do not write the unit itself.

Record excerpt, results attached:
>>> quantitative_result("CC1CN2C(c3ccc(Cl)c(Cl)c3)=CSC2=N1 (centres unmarked) [Compound 18]")
42
>>> quantitative_result("C1=C(c2ccccc2)N2CCN=C2S1 [Compound 1]")
47

For record CC1CN2C(c3ccc([N+](=O)[O-])cc3)=CSC2=N1 (centres unmarked) [Compound 17] the listed inhibition in vivo at 50 mg/kg is 48

For record Cc1ccc(C2=CSC3=NCCN23)cc1C [Compound 2] the listed inhibition in vivo at 50 mg/kg is 27

For record CC1=C(c2ccccc2)N2CCN=C2S1 [Compound 14] the listed inhibition in vivo at 50 mg/kg is 49

The origin of these recorded values is patent US4160768A.
